The origin of these recorded values is the Kinase Knowledgebase extract (Sharma et al. 2016).

system-name: MAPK14 (human) (UniProt Q16539)
Sequence (Q16539 whole entry, looked up): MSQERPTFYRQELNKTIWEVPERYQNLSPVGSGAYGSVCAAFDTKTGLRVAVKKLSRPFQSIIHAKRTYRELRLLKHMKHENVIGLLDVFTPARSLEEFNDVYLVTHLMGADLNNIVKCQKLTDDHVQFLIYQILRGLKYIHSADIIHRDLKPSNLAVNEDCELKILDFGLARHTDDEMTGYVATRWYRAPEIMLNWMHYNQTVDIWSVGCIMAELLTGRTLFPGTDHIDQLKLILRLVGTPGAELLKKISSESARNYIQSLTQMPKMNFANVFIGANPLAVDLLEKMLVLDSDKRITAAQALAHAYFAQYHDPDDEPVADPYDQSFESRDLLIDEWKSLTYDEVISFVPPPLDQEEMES
assay-text: Inhibition of TNF-alpha Production in LPS Stimulated PBMC
result-type: IC50 (nM)
Answers are plain numbers, in nM.

Take a look at these entries with their results.
Cc1cc(F)ccc1-c1nc(N(C(N)=O)c2c(Cl)cccc2Cl)ccc1CO : 50
Cc1ccccc1-c1nc(N(C(N)=O)c2c(Cl)cccc2Cl)ccc1CO : 140

Incoming: What does the data say about its IC50? Entry: "Cc1cc(F)ccc1-c1nc(N(C(N)=O)c2c(F)cccc2F)ccc1CO"
Outgoing: 10

====

system-name: MAPK14 (human) (UniProt Q16539)
assay-text: Inhibition of TNF-alpha Production in LPS Stimulated Whole Blood Cells
Provide the reported IC50 of each item.
State the result as a value with its unit after it.

// for each compound below, give its IC50
1. Cc1cc(F)ccc1-c1nc(N(C(N)=O)c2c(Cl)cccc2Cl)ccc1CO
2. Cc1cc(F)ccc1-c1nc(N(C(N)=O)c2c(F)cccc2F)ccc1CO
3. Cc1ccccc1-c1nc(N(C(N)=O)c2c(Cl)cccc2Cl)ccc1CO

Outgoing:
1: 55 nM; 2: 90 nM; 3: 64 nM
